# experimental.system: FLAG-Ago1 (Drosophila melanogaster, UniProt A1Z9J5 1-950)
# Sequence (A1Z9J5 entry or part of it): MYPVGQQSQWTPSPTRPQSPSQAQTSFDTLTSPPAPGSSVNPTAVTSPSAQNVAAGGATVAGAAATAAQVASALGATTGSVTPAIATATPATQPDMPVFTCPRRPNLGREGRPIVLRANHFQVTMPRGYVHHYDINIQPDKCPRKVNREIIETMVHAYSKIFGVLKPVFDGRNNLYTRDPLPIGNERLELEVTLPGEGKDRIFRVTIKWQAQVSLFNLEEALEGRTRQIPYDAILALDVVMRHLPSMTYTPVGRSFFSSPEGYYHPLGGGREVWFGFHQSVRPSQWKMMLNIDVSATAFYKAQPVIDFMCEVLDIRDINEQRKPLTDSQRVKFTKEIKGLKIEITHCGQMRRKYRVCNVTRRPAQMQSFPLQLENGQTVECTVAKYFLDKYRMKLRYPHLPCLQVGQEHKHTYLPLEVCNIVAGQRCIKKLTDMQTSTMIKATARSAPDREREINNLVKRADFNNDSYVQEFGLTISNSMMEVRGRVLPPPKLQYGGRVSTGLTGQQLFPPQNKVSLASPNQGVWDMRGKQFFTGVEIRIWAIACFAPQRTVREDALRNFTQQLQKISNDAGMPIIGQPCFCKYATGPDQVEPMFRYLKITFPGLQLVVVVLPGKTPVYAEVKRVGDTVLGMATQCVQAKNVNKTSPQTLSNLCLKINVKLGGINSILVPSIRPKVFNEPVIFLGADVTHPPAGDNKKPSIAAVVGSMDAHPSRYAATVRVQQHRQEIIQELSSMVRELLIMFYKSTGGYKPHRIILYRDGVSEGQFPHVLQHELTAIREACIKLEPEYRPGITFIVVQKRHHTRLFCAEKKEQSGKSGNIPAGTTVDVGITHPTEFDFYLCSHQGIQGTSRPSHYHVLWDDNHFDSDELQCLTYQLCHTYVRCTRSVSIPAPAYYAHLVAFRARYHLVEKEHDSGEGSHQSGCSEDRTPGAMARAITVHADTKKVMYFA
# assay.notes: RBNS; let-7 guide; RBNS: 20 mM HEPES-KOH pH 7.9, 100 mM KOAc, 3.5 mM Mg(OAc) (magnesium acetate), 0.05% CHAPS, 2 mM DTT, 8% glycerol, BSA, tRNA, 25 C 2 h; filter binding: 25 mM HEPES-KOH pH 7.9, 110 mM KOAc, 3.5 mM magnesium acetate, 2 mM DTT, BSA, tRNA, 8% glycerol, 25 C 2 h; competition: 18 mM HEPES-KOH pH 7.4, 100 mM KOAc, 3 mM magnesium acetate, 5 mM DTT, 0.01% IGEPAL, tRNA, 25 C 1 h
# cond: protein: recombinant; tags: FLAG; nucleation bulge A between t5 and t6
readout.label: Kd (nM)

> print(dat)
                                     binder  readout.label  numeric.readout
1  let-7 / 8mer-b5.6A (dsRNA, guide 5' phosphate) RNA 1: UGAGGUAGUAGGUUGUAUAGU RNA 2: CUAACCUCA             Kd             0.12

Where do the numbers come from? From paper doi:10.1101/2024.11.16.623948.
